For each record, write down the corresponding inhibition at 1 µM.
Tested on: HepG2
Experiment: In vitro antiproliferative activity against HepG2 cell line (human liver tumor) at 1 uM concentration
Type: functional
Answers are plain numbers, in %.

// known answers, use as guide
Mol: Cc1ccc(CO/N=C/c2c(C)nn(C)c2Oc2ccccc2)cc1
Target or system: HepG2
Quantity kind: inhibition at 1 µM
Unit: %
Obs value: 8.4
--
Mol: CC(C)c1nn(-c2ccccc2)c(Oc2ccc(Cl)cc2)c1/C=N/OCc1ccc(C(=O)OC(C)(C)C)cc1
Target or system: HepG2
Quantity kind: inhibition at 1 µM
Unit: %
Obs value: -14.7
--
Mol: Cc1nn(C)c(Oc2ccccc2)c1/C=N/OCCN1CCOCC1
Target or system: HepG2
Quantity kind: inhibition at 1 µM
Unit: %
Obs value: -40.5

Report inhibition at 1 µM for every entry below.
1. Cc1nn(C)c(Oc2ccccc2)c1/C=N/OCCN1CCN(Cc2ccc(C(=O)OC(C)(C)C)cc2)CC1
2. Cc1nn(C)c(Oc2ccc(Cl)cc2)c1/C=N/OCc1ccc([N+](=O)[O-])cc1

Data returned:
1. 19.8
2. 18.4

* * *

System: MCF7
Assay: In vitro antiproliferative activity against MCF-7 cell line (human breast tumor) at 1 uM concentration
Assay type: functional
For each record, write down the corresponding inhibition at 1 µM.
Give bare numbers, in %.

// known answers, use as guide
Mol: CC(C)c1nn(-c2ccccc2)c(Oc2ccc(Cl)cc2)c1/C=N/OCc1ccc(C(=O)OC(C)(C)C)cc1
inhibition at 1 µM (%): -4.9
//
Mol: Cc1nn(C)c(Oc2ccc(Cl)cc2)c1/C=N/OCc1ccc(C(F)(F)F)cc1
inhibition at 1 µM (%): 16.4

Report inhibition at 1 µM for every entry below.
1. Cc1nn(C)c(Oc2ccccc2)c1/C=N/OCc1cccc(-c2ccccc2)c1C
2. CCOC(=O)c1ccc(CO/N=C/c2c(C)nn(C)c2Oc2ccc(Cl)cc2)cc1
3. Cc1nn(-c2ccccn2)c(Oc2ccccc2)c1/C=N/OCc1ccc(C(=O)OC(C)(C)C)cc1
4. Cc1nn(C)c(Oc2ccccc2)c1/C=N/OCCN(C)C

Data returned:
24.4
33.9
-14.8
8.9

Report inhibition at 1 µM for every entry below.
1. COc1cccc(CO/N=C/c2c(C)nn(C)c2Oc2ccccc2)c1
2. Cc1nn(C)c(Oc2ccccc2)c1/C=N/OCc1ccc([N+](=O)[O-])cc1
3. Cc1nn(C)c(Oc2ccccc2)c1/C=N/OCCN1CCN(Cc2ccc(C(F)(F)F)cc2)CC1
4. CCOC(=O)c1ccc(CO/N=C/c2c(C)nn(-c3ccccc3)c2Oc2ccc(Cl)cc2)cc1

Data returned:
1: 8.4; 2: 24; 3: 37.7; 4: 12

* * *

System: A549
Experiment: Cytotoxic activity against A549 cell line (non-small cell lung carcinoma)
Assay type: functional, cell-based, Homo sapiens
Details: Homo sapiens, A549; read-out: IC50
For each record, write down the corresponding IC50.
One number for each entry, in µg/mL.

// known answers, use as guide
Molecule: Cc1nn(C)c(-n2cccn2)c1/C=N/OCc1ccc(C(=O)OC(C)(C)C)cc1
IC50 / µg/mL: 2.49

Molecule: Cc1nn(C)c(-n2ccnc2)c1/C=N/OCc1ccc(C(=O)OC(C)(C)C)cc1
IC50 / µg/mL: 5.93

Molecule: Cc1nn(C)c(N2CCOCC2)c1/C=N/OCc1ccc(C(=O)OC(C)(C)C)cc1
IC50 / µg/mL: 0.39

Molecule: Cc1nn(C)c(-n2cccc2)c1/C=N/OCc1ccc(C(=O)OC(C)(C)C)cc1
IC50 / µg/mL: 1.64

Molecule: Cc1nn(C)c(N2CCCC2)c1/C=N/OCc1ccc(C(=O)OC(C)(C)C)cc1
IC50 / µg/mL: 0.13

Report IC50 for every entry below.
1. Cc1nn(C)c(Sc2ccccc2)c1/C=N/OCc1ccc(C(=O)OC(C)(C)C)cc1
2. Cc1nn(C)c(-n2ccc3ccccc32)c1/C=N/OCc1ccc(C(=O)OC(C)(C)C)cc1
3. Cc1nn(C)c(Oc2ccccc2)c1/C=N/OCc1ccc(C(=O)OC(C)(C)C)cc1 [FENPYROXYMATE]
4. Cc1nn(C)c(Oc2ccc(Cl)cc2)c1/C=N/OCc1ccc(C(=O)OC(C)(C)C)cc1

Data returned:
0.13
0.43
0.12
0.1

Report IC50 for every entry below.
1. COc1cccc2c1C(=O)c1c(O)c3c(c(O)c1C2=O)C[C@@](O)(C(=O)CO)C[C@@H]3O[C@H]1C[C@H](N)[C@H](O)[C@H](C)O1
2. Cc1nn(C)c(N(C)C)c1/C=N/OCc1ccc(C(=O)OC(C)(C)C)cc1

Data returned:
[0.05, 2.76]

Where do these numbers come from? They come from ChEMBL document CHEMBL1140245.
